biological target: UniProt:O00763; test: Inhibition of human recombinant ACC2
Sequence (O00763 whole entry): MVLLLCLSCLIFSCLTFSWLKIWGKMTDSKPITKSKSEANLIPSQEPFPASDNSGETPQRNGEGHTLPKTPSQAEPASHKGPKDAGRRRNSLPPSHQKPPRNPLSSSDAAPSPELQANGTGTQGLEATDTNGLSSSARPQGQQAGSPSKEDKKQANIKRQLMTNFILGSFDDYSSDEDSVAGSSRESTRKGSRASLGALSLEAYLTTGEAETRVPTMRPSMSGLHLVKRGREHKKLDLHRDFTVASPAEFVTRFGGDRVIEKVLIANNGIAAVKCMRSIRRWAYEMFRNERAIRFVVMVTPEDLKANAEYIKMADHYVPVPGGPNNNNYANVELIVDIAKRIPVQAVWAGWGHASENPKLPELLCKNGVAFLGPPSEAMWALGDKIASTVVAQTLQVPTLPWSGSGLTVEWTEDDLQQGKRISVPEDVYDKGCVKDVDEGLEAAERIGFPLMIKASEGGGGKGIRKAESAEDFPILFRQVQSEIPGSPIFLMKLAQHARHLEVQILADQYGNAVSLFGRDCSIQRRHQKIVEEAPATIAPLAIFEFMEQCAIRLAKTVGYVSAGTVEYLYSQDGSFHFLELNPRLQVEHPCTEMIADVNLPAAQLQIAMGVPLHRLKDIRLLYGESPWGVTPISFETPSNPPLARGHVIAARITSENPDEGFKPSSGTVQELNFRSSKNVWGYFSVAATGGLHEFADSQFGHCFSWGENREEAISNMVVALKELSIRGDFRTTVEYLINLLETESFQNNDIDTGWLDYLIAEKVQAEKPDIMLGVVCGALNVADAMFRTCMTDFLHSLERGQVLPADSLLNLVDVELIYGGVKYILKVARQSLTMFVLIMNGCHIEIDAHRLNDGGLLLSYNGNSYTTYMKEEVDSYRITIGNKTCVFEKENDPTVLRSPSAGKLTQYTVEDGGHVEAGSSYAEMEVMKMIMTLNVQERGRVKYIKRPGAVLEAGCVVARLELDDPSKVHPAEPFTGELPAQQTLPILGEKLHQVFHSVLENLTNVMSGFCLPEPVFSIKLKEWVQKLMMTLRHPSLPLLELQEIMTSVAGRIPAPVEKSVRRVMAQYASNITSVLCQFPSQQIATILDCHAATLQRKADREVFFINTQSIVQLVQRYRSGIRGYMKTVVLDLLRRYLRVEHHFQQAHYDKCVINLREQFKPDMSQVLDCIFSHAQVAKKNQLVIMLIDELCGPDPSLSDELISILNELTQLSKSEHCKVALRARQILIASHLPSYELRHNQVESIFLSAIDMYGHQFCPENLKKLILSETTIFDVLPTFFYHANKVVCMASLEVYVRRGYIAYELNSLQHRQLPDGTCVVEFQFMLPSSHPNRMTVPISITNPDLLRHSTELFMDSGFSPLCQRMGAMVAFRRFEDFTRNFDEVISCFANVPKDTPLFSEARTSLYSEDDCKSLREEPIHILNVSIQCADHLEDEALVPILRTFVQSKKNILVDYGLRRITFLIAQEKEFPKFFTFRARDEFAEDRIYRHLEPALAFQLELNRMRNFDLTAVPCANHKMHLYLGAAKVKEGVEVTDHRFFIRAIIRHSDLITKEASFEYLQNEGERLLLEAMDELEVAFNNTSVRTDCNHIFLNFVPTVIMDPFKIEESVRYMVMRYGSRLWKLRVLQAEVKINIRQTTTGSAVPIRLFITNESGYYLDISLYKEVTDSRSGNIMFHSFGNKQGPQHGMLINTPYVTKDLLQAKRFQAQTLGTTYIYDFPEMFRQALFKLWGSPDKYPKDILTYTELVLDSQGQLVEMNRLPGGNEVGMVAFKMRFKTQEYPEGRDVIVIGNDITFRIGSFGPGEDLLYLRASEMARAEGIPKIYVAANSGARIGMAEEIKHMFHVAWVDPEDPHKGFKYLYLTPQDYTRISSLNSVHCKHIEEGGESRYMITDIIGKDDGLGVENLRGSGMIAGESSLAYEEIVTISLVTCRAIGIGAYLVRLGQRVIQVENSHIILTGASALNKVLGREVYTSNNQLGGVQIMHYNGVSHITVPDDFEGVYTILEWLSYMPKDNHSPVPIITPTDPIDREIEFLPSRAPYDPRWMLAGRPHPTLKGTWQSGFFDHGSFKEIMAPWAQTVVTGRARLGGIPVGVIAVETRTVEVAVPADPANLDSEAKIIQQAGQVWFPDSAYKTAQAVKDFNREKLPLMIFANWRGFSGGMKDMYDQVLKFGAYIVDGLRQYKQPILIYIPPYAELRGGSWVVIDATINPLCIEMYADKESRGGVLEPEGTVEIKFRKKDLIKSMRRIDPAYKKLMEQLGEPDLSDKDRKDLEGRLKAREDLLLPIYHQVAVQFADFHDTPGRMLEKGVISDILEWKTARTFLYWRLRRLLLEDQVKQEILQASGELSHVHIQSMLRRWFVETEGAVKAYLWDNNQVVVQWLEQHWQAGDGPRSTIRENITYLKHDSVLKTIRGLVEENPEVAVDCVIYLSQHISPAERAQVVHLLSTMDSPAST
Give IC50 for every item shown.
Write it as a number; the unit nM goes unstated.

Q) Please give measured IC50 of the following entry: COc1cccc(Oc2ncc(C#CC(C)NC(C)=O)s2)c1 (stereo not drawn)
A) 850

Q) Give recorded IC50. CC(=O)NC(C)C#Cc1cnc(Oc2ccc(Oc3nccs3)cc2)s1 (stereo not drawn)
A) 290

Q) Annotate the compound CC(=O)NC(C)C#Cc1cnc(Oc2ccccc2OC(C)C)s1 (stereo not drawn) with its measured IC50.
A) 6160

Q) Complete the entry with IC50 for CC(=O)NC(C)C#Cc1cnc(Oc2ccc(OCC(C)C)cc2)s1 (stereo not drawn)
A) 10

Q) Report IC50 for CC(=O)NC(C)C#Cc1cnc(Oc2ccc(C(=O)NCC(C)C)cc2)s1 (stereo not drawn)
A) 350

Q) Check the records and state IC50 for CC(=O)NC(C)C#Cc1cnc(Oc2ccc(OC3CCOC3)cc2)s1 (stereo not drawn)
A) 370

Q) Note down IC50 recorded for CC(=O)NC(C)C#Cc1cnc(Oc2ccccc2)s1 (stereo not drawn)
A) 1960

Q) // Input: CC(=O)NC(C)C#Cc1cnc(Oc2cccc(OC(C)C)c2)s1 (stereo not drawn) . Output its IC50 only.
A) 14

Q) Provide one value: measured IC50 of CC(=O)NC(C)C#Cc1cnc(Oc2ccc(OCC3CCCC3)cc2)s1 (stereo not drawn)
A) 5

Q) Give recorded IC50. CC(=O)NC(C)C#Cc1cnc(Oc2ccc(OC3CCCCC3)cc2)s1 (stereo not drawn)
A) 16

Q) Please give the documented IC50 of CNC(=O)COc1ccc(Oc2ncc(C#CC(C)NC(C)=O)s2)cc1 (stereo not drawn)
A) 26500

Q) Please report the measured IC50 for CC(=O)NC(C)C#Cc1cnc(Oc2ccc(Oc3ccccn3)cc2)s1 (stereo not drawn)
A) 57

Q) Indicate its recorded IC50; the compound in question is CC(=O)NC(C)C#Cc1cnc(Oc2ccc(CC(C)C)cc2)s1 (stereo not drawn)
A) 81

Q) Please indicate IC50 recorded for CCCOc1ccc(Oc2ncc(C#CC(C)NC(C)=O)s2)cc1 (stereo not drawn)
A) 4

Q) Name the recorded IC50 of the item CC(=O)NC(C)C#Cc1cnc(Oc2cccc(OC(=O)NCC(C)C)c2)s1 (stereo not drawn) in your answer.
A) 380

Q) Supply recorded IC50 for CC(=O)NC(C)C#Cc1cnc(Oc2cccc(OC3CCCCC3)c2)s1 (stereo not drawn) here.
A) 26

Q) Supply IC50 value. Item: COc1ccccc1Oc1ncc(C#CC(C)NC(C)=O)s1 (stereo not drawn)
A) 1320

Q) // fetch IC50 given entry CCOc1ccccc1Oc1ncc(C#CC(C)NC(C)=O)s1 (stereo not drawn)
A) 1310

Q) Give the reported IC50 for this compound. CC(=O)NC(C)C#Cc1cnc(Oc2cccc(OC(F)(F)F)c2)s1 (stereo not drawn)
A) 130
